- Experimental Target: factor D (Homo sapiens, UniProt P00746)
- Construct: made in house; host or cells: E. coli
- Sequence (P00746 26-253): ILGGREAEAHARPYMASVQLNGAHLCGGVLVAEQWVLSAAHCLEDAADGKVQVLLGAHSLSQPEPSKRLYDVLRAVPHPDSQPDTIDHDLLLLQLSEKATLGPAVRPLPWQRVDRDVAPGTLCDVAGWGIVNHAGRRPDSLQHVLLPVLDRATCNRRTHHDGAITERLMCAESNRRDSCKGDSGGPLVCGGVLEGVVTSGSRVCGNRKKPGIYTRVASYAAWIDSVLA
- Protocol Summary: factor D inhibition assay of Biological Example 2
- Assay type: biochemical
Experimental Endpoint: IC50 (nM)

Here's what some known entries look like.
{"Molecule": "C[C@@H](N)c1cccc(-c2cc(CCCF)cc(COc3ccccc3CC(=O)O)c2)c1 [Example 271]", "Experimental Target": "factor D (Homo sapiens, UniProt P00746)", "Measure Unit": "nM", "IC50": 10}
{"Molecule": "NCc1cccc(-c2cccc(COc3ccccc3CC(=O)O)c2)c1O [Example 144-C]", "Experimental Target": "factor D (Homo sapiens, UniProt P00746)", "Measure Unit": "nM", "IC50": 56}
{"Molecule": "C[C@@H](N)c1cccc(-c2cc(COc3ccccc3CC(=O)O)cc(C(C)(C)O)c2)c1 [Example 120-H]", "Experimental Target": "factor D (Homo sapiens, UniProt P00746)", "Measure Unit": "nM", "IC50": 10}
{"Molecule": "COc1ccc(C(=O)Nc2ccccc2CC(=O)O)cc1-c1cc(F)cc(CN)c1 [Example 9]", "Experimental Target": "factor D (Homo sapiens, UniProt P00746)", "Measure Unit": "nM", "IC50": 71}
{"Molecule": "N[C@H](CO)c1cccc(-c2cc(COc3ccccc3CC(=O)O)cc(OC[C@H]3CCCO3)c2)c1F [Example 231-F]", "Experimental Target": "factor D (Homo sapiens, UniProt P00746)", "Measure Unit": "nM", "IC50": 9}

[P] CNC(=O)c1cc(COc2cc(C(=O)Nc3ccccc3CC(=O)O)cc(-c3cccc(CN)c3)c2)ccn1 [Example 70]
[Q] CCOC(=O)Cc1ccccc1NC(=O)c1cc(NC[C@H]2CCCO2)cc(-c2cc(F)cc(CN)c2)c1 [Example 85]
Field: lower recorded IC50 (choose P or Q ) Return value: the label identifying the chosen record.
P

[a] C[C@@H](N)c1cccc(-c2cc(CCC3CNCCO3)cc(COc3ccccc3CC(=O)O)c2)c1F (some centres unmarked) [Example 239-C]
[b] C[C@@](N)(CO)c1cccc(-c2cccc(COc3ccccc3CC(=O)O)c2)c1 [Example 142-F]
[c] C[C@@H](N)c1cccc(-c2cc(COc3ccccc3CC(=O)O)cc(S(C)(=O)=O)c2)c1F [Example 250-D]
[d] CC(C)CNc1cc(COc2ccccc2CC(=O)O)cc(-c2cccc([C@@H](C)N)c2F)c1 [Example 224-B]
Rank the 4 molecules: largest IC50 first, smallest last. Note for the reader: the ranking is given by listing the labels in the order requested.
b, c, a, d

[P] NCc1cccc(-c2cc(COc3ccccc3CC(=O)O)cc(-c3cc4ccccc4[nH]3)c2)c1 [Example 209-A]
[Q] NCc1cc(F)cc(-c2cccc(S(=O)(=O)Nc3ccccc3CC(=O)O)c2)c1 [Example 49]
[R] NCc1cc(F)cc(-c2cc(NCc3ccncc3)cc(C(=O)Nc3ccccc3CC(=O)O)c2)c1 [Example 14-B]
[S] N[C@@H](CCO)c1cccc(-c2cccc(C(=O)Nc3ccccc3CC(=O)O)c2)c1 [Example 89]
[T] CCC[C@@H](N)c1cc(-c2cccc(COc3ccccc3CC(=O)O)c2)ccn1 [Example 196-B]
Rank by IC50 (largest to smallest). // list labels; follow requested order
S, Q, T, R, P

====

- Experimental Target: factor D (Homo sapiens, UniProt P00746)
- Construct: made in house; host or cells: E. coli
- Protocol Summary: factor D inhibition assay of Biological Example 2
- Assay type: biochemical
Experimental Endpoint: IC50 (nM)

Worked examples, 2 molecules total:
{"Molecule": "N[C@H](CO)c1cccc(-c2cc(COc3ccccc3CC(=O)O)cc(C(O)C(F)(F)F)c2)c1 (single isomer, unassigned) [116-G b) (tr = 2.1 min)]", "Recorded Value": 11}
{"Molecule": "C[C@@H](N)c1cccc(-c2cc(COc3ccccc3CC(=O)O)cc(OCc3ccccn3)c2)c1F", "Recorded Value": 5}

[I] COC[C@@H](N)c1cccc(-c2ccnc(COc3ccccc3CC(=O)O)c2)c1
[II] NC(CF)c1cccc(-c2cc(COc3ccccc3CC(=O)O)cc(OC[C@H]3CCCO3)c2)c1F (single isomer, unassigned; (-)) [Example 212-A]
[III] C[C@@H](N)c1cccc(-c2cc(COc3ccccc3CC(=O)O)cc(NCC3CC3)c2)c1F
[IV] N[C@H](CO)c1cccc(-c2cc(OC[C@@H]3CCCO3)cc(C(=O)Nc3ccccc3CC(=O)O)c2)c1
[V] C[C@@H](N)c1cccc(-c2cc(NCC3CC3)cc(N(C)Cc3ccccc3CC(=O)O)c2)c1F
Sort (5 molecules) by IC50: min first. Respond with the label ranking, as requested.
III, II, IV, V, I
(III: 4 nM, II: 6 nM, IV: 20 nM, V: 32 nM, I: 436 nM)

====

- Experimental Target: factor D (Homo sapiens)
- Construct: made in house; host or cells: E. coli
- Protocol Summary: factor D inhibition assay of Biological Example 2
- Format: biochemical
Experimental Endpoint: IC50 (nM)

{"Compound": "C[C@@H](N)c1cccc(-c2cc(COc3ccccc3CC(=O)O)cc(NCC3CC3(F)F)c2)c1F (stereo partly shown)", "Experimental Target": "factor D (Homo sapiens)", "IC50 [nM]": 14}
{"Compound": "NCc1cc(F)cc(-c2cccc(C(=O)Nc3c(Cl)cccc3CC(=O)O)n2)c1", "Experimental Target": "factor D (Homo sapiens)", "IC50 [nM]": 138}
{"Compound": "N[C@H](CO)c1cccc(-c2cc(C(=O)Nc3ccccc3CC(=O)O)cc(-c3cccc([C@H](N)CO)c3)c2)c1", "Experimental Target": "factor D (Homo sapiens)", "IC50 [nM]": 19}
{"Compound": "NCc1nc(-c2cccc(COc3ccccc3CC(=O)O)c2)cs1", "Experimental Target": "factor D (Homo sapiens)", "IC50 [nM]": 133}
{"Compound": "NCc1cccc(-c2cccc(CCc3ccccc3CC(=O)O)c2)c1", "Experimental Target": "factor D (Homo sapiens)", "IC50 [nM]": 470}

[A] C[C@@H](N)c1cccc(-c2cc(COc3ccccc3CC(=O)O)cc(OCC3(C)CC3)c2)c1
[B] NCc1cccc(-c2cc(-c3ccccc3)cc(C(=O)Nc3ccccc3CC(=O)O)n2)c1
[C] C[C@@H](N)c1cccc(-c2cc(COc3ccccc3CC(=O)O)cc(OCC3CCCC3)c2)c1F
Please order the records by their reported IC50, lowest number first. Arrange the labels as the request states and list them.
B, A, C

[A] C[C@@H](N)c1cccc(-c2cc(COc3ccccc3CC(=O)O)cc(CN3CCCC3)c2)c1F
[B] COc1c(C(=O)Nc2ccccc2CC(=O)O)cccc1-c1cc(F)cc(CN)c1
In the pair A and B , the larger recorded IC50 belongs to which? Give the label under which the chosen entry appears.
B

[I] NCc1cccc(-c2cc(OCC3CCCO3)cc(C(=O)Nc3ccccc3CC(=O)O)c2)c1 (racemic)
[II] C[C@@H](N)c1cccc(-c2ccc(C3CC3)c(COc3ccccc3CC(=O)O)c2)c1F
Which of the two items, I and II , has the greater recorded IC50? Answer by quoting the chosen item's label.
I

[a] CC(O)c1cc(COc2ccccc2CC(=O)O)cc(-c2cccc(CN)c2)c1 (racemic)
[b] C[C@@H](N)c1cccc(-c2cc(COc3ccccc3CC(=O)O)cc(OCC3(C)COC3)c2)c1F
For a and b , which recorded IC50 is lower? Indicate which entry you chose by stating its label.
a

[I] CNc1sc(-c2cc(F)cc(CN)c2)nc1C(=O)Nc1cc(C)ccc1CC(=O)O
[II] C[C@@H](N)c1cccc(-c2ccc(Cl)c(COc3ccccc3CC(=O)O)c2)c1F
Could you tell me which of these two has the smaller IC50 figure? First: I Second: II State your choice using its label.
I
(I: 5 nM, II: 13 nM)

====

- Experimental Target: factor D (Homo sapiens, UniProt P00746)
- Construct: made in house; host or cells: E. coli
- Protocol Summary: factor D inhibition assay of Biological Example 2
- Type: biochemical
Experimental Endpoint: IC50 (nM)

{"Compound": "COC(C)c1cc(COc2ccccc2CC(=O)O)cc(-c2cccc([C@H](N)CO)c2)c1 (stereo partly shown)", "Experimental Target": "factor D (Homo sapiens, UniProt P00746)", "IC50 / nM": 17}
{"Compound": "C[C@@H](N)c1cccc(-c2cc(COc3ccccc3CC(=O)O)cc(OCC3(C)CC3)c2)c1F", "Experimental Target": "factor D (Homo sapiens, UniProt P00746)", "IC50 / nM": 22}
{"Compound": "CC(C)OCc1cc(COc2ccccc2CC(=O)O)cc(-c2cccc([C@@H](C)N)c2)c1", "Experimental Target": "factor D (Homo sapiens, UniProt P00746)", "IC50 / nM": 7}
{"Compound": "C[C@@H](N)c1cccc(-c2cc(COc3ccccc3CC(=O)O)cc(-c3cnn(C)c3)c2)c1F", "Experimental Target": "factor D (Homo sapiens, UniProt P00746)", "IC50 / nM": 3}
{"Compound": "NCc1cc(-c2cccc(COc3ccccc3CC(=O)O)c2)ccn1", "Experimental Target": "factor D (Homo sapiens, UniProt P00746)", "IC50 / nM": 12}

[I] Cc1ccc(NC(=O)c2cccc(-c3cc(F)cc(CN)c3)c2)c(CC(=O)O)c1
[II] C[C@@H](N)c1cccc(-c2cc(COc3ccccc3CC(=O)O)cc(N(C)CC3CCCC3)c2)c1F
[III] C[C@@H](N)c1cccc(-c2cc(CCC3CCCO3)cc(COc3ccccc3CC(=O)O)c2)c1F (stereo partly shown)
Arrange these compounds by their IC50, starting with the largest number. Put the labels in the order asked and list them.
I, II, III
(I: 835 nM, II: 31 nM, III: 9 nM)

Where do the numbers come from? From patent US20160145247A1.
